Test system: OVCAR-8 ovarian
Test: NCI-60 one-dose screen, 48 h (100 = growth as untreated, 0 = no growth, -100 = all killed)
Conditions: 10 µM unless noted
This is part of a sample that, as a whole, favours compounds with a hit. Of some 83,000 tested, about 20% had one in any assay.
Please go through the items and note down their growth.
Supply the numeric figure in %, leaving out any unit text.

Just so you know, measured growth for COc1ccc(/C(C)=N/NC(=O)CSc2nc3ccccc3c(=O)n2CCc2ccc(S(N)(=O)=O)cc2)cc1 came out at -12.9

Just so you know, measured growth for COc1cc(C2CC(c3ccccc3)=NN2C=O)ccc1Oc1nc2c(c(=O)n(C)c(=O)n2C)n1C (stereo not given) came out at 91.3

Just so you know, measured growth for COc1cc(OC)c(Cl)cc1N came out at 104

Just so you know, measured growth for CC(C)c1cccc(C#N)c1 came out at 95.1

Just so you know, measured growth for CC(C)c1nc2ccccc2n1CC(=O)N/N=C/c1cccc(O)c1 came out at 92.6

Just so you know, measured growth for O=C1/C=C/[C@@H](O)[C@@H]2C[C@@H](O)C[C@H]2/C=C/CCC[C@H]([C@@H](O)CO)O1 came out at 82

Just so you know, measured growth for N/C(=N\OC(=O)c1ccccc1)C(Cc1ccccc1)C(=O)NOC(=O)c1ccccc1 (stereo not given) came out at 38

Just so you know, measured growth for O=C1/C(=C/c2ccccc2)SC(=Nc2ccccc2)N1Nc1ccccc1 came out at 24.5

Just so you know, measured growth for CCCCCCCC/C=C\CCCCCCCC(=O)OCCCCCC came out at 100

Just so you know, measured growth for CCN(CC)Cc1cc(Nc2ccnc3ccc(OC)cc23)ccc1O came out at 28.4

Just so you know, measured growth for c1csc(-c2cnc3nonc3n2)c1 came out at 79.2

Just so you know, measured growth for O=C1c2cccc3cccc(c23)C(=O)N1CCCCCCCCCCN1C(=O)c2cccc3cccc(c23)C1=O came out at 104

Just so you know, measured growth for CN1C(=O)C(C(=O)/C=C/c2ccccc2C(=O)O)C(=O)N(C)C1=O came out at 102

Just so you know, measured growth for Cc1c(C(=O)CCl)c(=O)n(-c2ccccc2)n1C came out at 72.3

Just so you know, measured growth for O=C(N/N=C\c1cc(Br)ccc1O)c1ccncc1 came out at 27.5

Just so you know, measured growth for O=C(Nc1ccc(Br)cc1)Nc1cccc(Br)c1 came out at 48.8

Just so you know, measured growth for Cc1ccc([C@H]2c3[nH]c4ccccc4c3C[C@H]3C(=O)N(CCCCCCC(=O)NO)CC(=O)N23)cc1 came out at 39.5

Just so you know, measured growth for Cc1cc(C#Cc2ccc(C(C)(C)C)cc2)ccc1-n1c(/C=C/c2c(Cl)cccc2Cl)nc2ccccc2c1=O came out at 115

Just so you know, measured growth for COc1ccc(C(=O)C(CN(C)C)c2ccc(OC)cc2)cc1 (stereo not given) came out at 42.2

Just so you know, measured growth for COc1ccc(CNc2c3ccccc3nc3ccccc23)cc1F came out at 29.4

Just so you know, measured growth for CCS(=O)(=O)Nc1cccc(Nc2c3cccc(C)c3nc3c(C)cccc23)c1OC came out at 24

Just so you know, measured growth for Cc1cc(-c2ccccc2)on1 came out at 106

Just so you know, measured growth for CCN(CC)CC(=O)Nc1c(C)cc(C(=O)NN)cc1C came out at 107

Just so you know, measured growth for COc1ccc2c(c1)sc1nc(-c3ccccc3)c(-c3cccc4ccccc34)n12 came out at 19.4

Just so you know, measured growth for C(=Nc1ccc(-c2ccc(N=Cc3ccccc3)cc2)cc1)c1ccccc1 came out at 109

Just so you know, measured growth for CCCCCCCCCCCCCCCCCC(=O)OCCCCCCCCCCCCC came out at 109

Just so you know, measured growth for COC(=O)CSc1ccc(Cl)cc1 came out at 106

Just so you know, measured growth for CCOC(=O)c1ccc(NC(=O)CSC(N)=O)cc1 came out at 100

Just so you know, measured growth for Cc1ccc(Nc2cccc3ccccc23)cc1 came out at 96.2

Just so you know, measured growth for Cn1c(-c2ccccc2)cc(=O)n1-c1ccccc1 came out at 107

Just so you know, measured growth for C=C(c1ccc(C(=O)NCCCn2ccnc2)cc1)c1cc2c(cc1C)C(C)(C)CCC2(C)C came out at 40

Just so you know, measured growth for CCSc1cnnc2ccccc12 came out at 104

Just so you know, measured growth for Cn1cnc([N+](=O)[O-])c1S(=O)(=O)Oc1cccc2ccccc12 came out at 73.3

Just so you know, measured growth for C=C1C(=O)O[C@H]2[C@H]1CC/C(COC(=O)NCc1ccc(Cn3c(=O)sn(CCCl)c3=O)cc1)=C\CC[C@@]1(C)O[C@@H]21 came out at 92.1

Just so you know, measured growth for COc1ccc(NC(=O)c2sc3c(=O)[nH]c(C(F)(F)F)nc3c2C)cc1 came out at 100

Just so you know, measured growth for O=C(CSc1nc2c(n1Nc1ccccc1)-c1ccccc1SC2)Nc1nccs1 came out at 97.3

Just so you know, measured growth for C[N+](C)(C)CC(=O)N/N=C\c1ccco1 came out at 102

Just so you know, measured growth for O=S(=O)(Nc1ccc2ccccc2c1)N1CCCCC1 came out at 68.2

Just so you know, measured growth for C#CCNc1nc(NCCNC(=O)CCl)nc(N(C)CCCCc2ccccc2)n1 came out at 101

Just so you know, measured growth for COc1cc(C2CC(c3ccc(Cl)cc3)=NN2C(C)=O)ccc1Oc1nc2c(c(=O)n(C)c(=O)n2C)n1C (stereo not given) came out at 92.2

Just so you know, measured growth for CCN(CC)CCNC(=O)C(F)(F)C(F)(F)C(F)(F)F came out at 114

Just so you know, measured growth for CN1C(=O)N(C)C2C1NN=c1s/c(=C\c3ccc(C(F)(F)F)cc3)c(=O)n12 (stereo not given) came out at 29.1

Just so you know, measured growth for c1ccc2oc(-c3cnc4nonc4n3)cc2c1 came out at 93.6

Just so you know, measured growth for COc1cc(OC)cc(-c2ccc(-c3ccc(C(=N)N)s3)s2)c1 came out at -58.8

Just so you know, measured growth for C#Cc1cccc(Nc2nc3cc([N+](=O)[O-])ccc3nc2Nc2ccc(O)cc2)c1 came out at 18.3

###

Please go through the items and note down their growth.
System: SF-268 CNS
Test: NCI-60 one-dose screen, 48 h (100 = growth as untreated, 0 = no growth, -100 = all killed)
Settings: 10 µM unless noted
Compounds without any hit were thinned out: in the full panel of roughly 83,000, 20% have a hit.
Supply the numeric figure in %, leaving out any unit text.

Noted growth for O=C(/C=C/c1ccccc1Br)c1cccc(OCCCCOc2cccc(C(=O)/C=C/c3ccccc3Br)c2)c1 , tested on SF-268 CNS: 101

Noted growth for N=C(N)c1ccc(-c2ccc(-c3ccco3)o2)cc1F , tested on SF-268 CNS: 19.8

Noted growth for O/N=C/c1ccncc1 , tested on SF-268 CNS: 111

Noted growth for COc1nccc2c(Sc3ccccc3)nc(N)nc12 , tested on SF-268 CNS: 105

Noted growth for CCCCc1nc(Cl)c(C2CC(c3ccc(S(N)(=O)=O)cc3)=NN2c2ccc(C#N)cc2)[nH]1 (stereo not drawn) , tested on SF-268 CNS: 91.9

Noted growth for Cc1ccc(NC(=O)c2sc3nc4c(cc3c2N)C(=O)CCC4)cc1Cl , tested on SF-268 CNS: 115

Noted growth for C[C@@H]1N=C(c2ccc3ccccc3c2)Nc2nc3ccccn3c2C1=O , tested on SF-268 CNS: 58

Noted growth for O=C1C(Cl)=C(Nc2cccc3ccccc23)C(=O)c2ccccc21 , tested on SF-268 CNS: 85.5

Noted growth for CC(C)c1ccc2c(c1)CCC1C2CCCC1(C)NCc1ccccc1 (stereo not drawn) , tested on SF-268 CNS: 79.2

Noted growth for CC(C)CC1NC(=O)C(CC(C)C)N(CO)C1=O (stereo not drawn) , tested on SF-268 CNS: 112

Noted growth for N=c1nc(N2CCCCC2)cc(N)n1O , tested on SF-268 CNS: 109

Noted growth for CCCCCCCCCCCCCC , tested on SF-268 CNS: 120

Noted growth for C=C1C[C@@]2(C)C(CC[C@]3(C)C2CC=C2C4CC(C)(C)C[C@@H](OC(=O)/C(C)=C\C)[C@]4(C(=O)O)CC[C@]23C)C(C)(C)C1=O (stereo partly drawn) , tested on SF-268 CNS: 50.4

Noted growth for CC(C)(C)c1nn(-c2ccccc2)c2c1C(=O)CSC(c1ccccc1Cl)N2 (stereo not drawn) , tested on SF-268 CNS: 50.4

Noted growth for COc1cc(Nc2ncccc2/C=C/C(=O)c2cc(OC)c(OC)c(OC)c2)cc(OC)c1OC , tested on SF-268 CNS: 83.3

Noted growth for COc1cc(NCC(O)CN(CC(C)C)CC(C)C)c2ncccc2c1 (stereo not drawn) , tested on SF-268 CNS: 98.5

Noted growth for O=P(O)(O)C(O)(Cc1cccnc1)P(=O)(O)O , tested on SF-268 CNS: 104

Noted growth for CCN(CC)c1ccc(/C=C2/NC(=O)NC2=O)cc1 , tested on SF-268 CNS: 57

Noted growth for Cc1cc([N+](=O)[O-])c(C)cc1N , tested on SF-268 CNS: 105

Noted growth for c1ccc(CCn2cccc2)nc1 , tested on SF-268 CNS: 96.5

Noted growth for COc1cc(-c2nc(-c3ccc(-c4nc5ccc(F)cc5[nH]4)cc3)no2)cc(OC)c1OC , tested on SF-268 CNS: 35.8

Noted growth for CC(C)OC1OC(OC(C)C)C(OC(C)C)OC1OC(C)C (stereo not drawn) , tested on SF-268 CNS: 96.5

Noted growth for Cc1ccc(C)c2c1SC1=NNC(Oc3ccc(Cl)cc3)=C(C#N)C(=N)N12 , tested on SF-268 CNS: 113
